Study the reported IC50 values for 3',5'-cyclic-AMP phosphodiesterase 4B (Homo sapiens) given below; they originate from different publications.
Reply numerically in nM, unit not repeated.

                                   molecule                            assayed_target  unit_text  readout_value
0  O=C(c1ccc(-c2cccc(Cl)c2)o1)N1CCCc2ccccc21  3',5'-cyclic-AMP phosphodiesterase 4B (Homo sapiens)         nM          18900
1  COc1ccc(C(=O)Nc2c(Cl)cncc2Cl)c2cc(C3CC3)nn12  3',5'-cyclic-AMP phosphodiesterase 4B (Homo sapiens)         nM           0.51
2  COc1ccc(C2=NN(C3CCCCCC3)C(=O)C2(C)C)cc1OCCCCOc1ccc(-c2nnn[nH]2)cc1  3',5'-cyclic-AMP phosphodiesterase 4B (Homo sapiens)         nM            4.6
3  O=C(O)[C@H]1CC[C@H](c2cc3cccnc3c(-c3cccc(F)c3)n2)CC1  3',5'-cyclic-AMP phosphodiesterase 4B (Homo sapiens)         nM             34
4   COc1ccc(-c2nc(C)co2)c2ccc(C(F)(F)F)nc12  3',5'-cyclic-AMP phosphodiesterase 4B (Homo sapiens)         nM            350

input: Which value of IC50 has been reported for Cn1c(=O)c2c(nc(NCc3ccco3)n2CCCC(=O)N/N=C/c2ccc(O)cc2O)n(C)c1=O in the records?
output: 4400

input: Same for O=C(c1ccc(-c2ccc([N+](=O)[O-])cc2)o1)N1CCCc2ccccc21
output: 12100
